The measurements presented in this section are drawn from patent US20170129903A1.

Form field: Ki (one value per entry).
# measured-target: p53-Mdm2 interaction (N-terminal domain of Mdm2 protein, amino acids 1-111) (Homo sapiens, UniProt Q00987)
# Construct: N-terminal domain of Mdm2 protein (amino acids 1-111)
# Sequence (Q00987 1-111): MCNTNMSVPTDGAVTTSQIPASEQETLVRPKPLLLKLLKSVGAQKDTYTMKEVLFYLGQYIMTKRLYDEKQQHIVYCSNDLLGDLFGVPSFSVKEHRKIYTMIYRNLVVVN
# method: Fluorescence polarization (FP) binding assay of p53-Mdm2 interaction
# reported-conditions: FP assay, 130 nM Mdm2, FAM-labelled p53 peptide; Ki transformed from IC50 using Kenakin equation
Quick note: give the figure in nM, leave out the unit.

Example entries and their recorded answers appear below.
1) CC(C)c1[nH]nc2c1C1(C(=O)Nc3cc(Cl)ccc31)N(c1cc(Cl)ccn1)C2=O (centres unmarked) = 425
2) O=C(O)CNC1=C(c2ccccc2)C2(C(=O)Nc3cc(Cl)ccc32)N(c2cccc(Cl)c2)C1=O (centres unmarked) = 38
3) COc1cc2[nH]c(=O)[nH]c2cc1-n1cc2c(c1C(C)C)C1(C(=O)Nc3cc(Cl)ccc31)N(c1cc(Cl)ccc1C)C2=O (centres unmarked) = 4.7
4) CC(C)C(=O)C1=C(O)C(=O)N(c2cc(Cl)ccc2O)C12C(=O)Nc1cc(Cl)ccc12 (centres unmarked) = 268
5) COc1ccc(NC(C)=O)cc1-n1cc2c(c1C(C)C)C1(C(=O)Nc3cc(Cl)ccc31)N(c1cc(Cl)ccc1C)C2=O (centres unmarked) = 3.4

Exercise: Consider the compound CC(C)(C)SC1=C(O)C(=O)N(c2cccc(Cl)c2)C12C(=O)Nc1cc(Cl)ccc12 (centres unmarked) and give its measured Ki.
Key: 82

Exercise: So what does the record say about Ki for COc1ccc(Cl)cc1N1C(=O)c2n[nH]c(C3(C)CC3)c2C12C(=O)Nc1cc(Cl)ccc12 (centres unmarked) ?
Key: 120

Exercise: GET /values?readout=Ki&item= COc1ccc(Cl)cc1N1C(=O)C(O)=C(C(=O)C2(C)CC2)C12C(=O)Nc1cc(Cl)ccc12 (centres unmarked)
Key: 700

Exercise: So what does the record say about Ki for O=C1C(O)=C(c2cccc(Cl)c2)C2(C(=O)Nc3cc(Cl)ccc32)N1c1ccccc1 (centres unmarked) ?
Key: 190

Exercise: // returns reported Ki for input COc1ccc(Cl)cc1N1C(=O)c2n[nH]c(C(C)C)c2C12C(=O)Nc1cc(Cl)ccc12 (centres unmarked)
Key: 94

Exercise: Which Ki value is on record for O=C1C(O)=C(c2ccccc2)C2(C(=O)Nc3ccccc32)N1c1cccc(Cl)c1 (centres unmarked) ?
Key: 750

Exercise: # Ki lookup, item COc1ccccc1-n1nc2c(c1C(C)C)C1(C(=O)Nc3cc(Cl)ccc31)N(c1cc(Cl)c(=O)n(C)c1)C2=O (centres unmarked)
Key: 2.4

---

Reported values of Ki for individual entries
# measured-target: p53-Mdm2 interaction (N-terminal domain of Mdm2 protein, amino acids 1-111) (Homo sapiens, UniProt Q00987)
# Construct: N-terminal domain of Mdm2 protein (amino acids 1-111)
# method: Fluorescence polarization (FP) binding assay of p53-Mdm2 interaction
# reported-conditions: FP assay, 130 nM Mdm2, FAM-labelled p53 peptide; Ki transformed from IC50 using Kenakin equation
The reply should contain only the number, in nM.

Look over these answered cases.
1. COc1ccc(-n2cc3c(c2C(C)C)C2(C(=O)Nc4cc(Cl)ccc42)N(c2cc(Cl)cnc2C)C3=O)c(OC)c1 (stereo not shown) = 3.1
2. COc1ccccc1-n1nc2c(c1C(C)C)[C@@]1(C(=O)Nc3cc(Cl)ccc31)N(c1cncc(Cl)c1)C2=O [Compound 88] = 1.9

Exercise: Could you share which Ki value was measured for O=C1C(O)=C(C2CCCCC2)C2(C(=O)Nc3cc(Cl)ccc32)N1c1cccc(Cl)c1 (stereo not shown) ?
Key: 281

Exercise: Returns the measured Ki for the input compound. Input: CC(C)(C)c1[nH]nc2c1C1(C(=O)Nc3cc(Cl)ccc31)N(c1cccc(Cl)c1)C2=O (stereo not shown)
Key: 24

---

# measured-target: p53-Mdm2 interaction (N-terminal domain of Mdm2 protein, amino acids 1-111) (Homo sapiens, UniProt Q00987)
# Construct: N-terminal domain of Mdm2 protein (amino acids 1-111)
# method: Fluorescence polarization (FP) binding assay of p53-Mdm2 interaction
# reported-conditions: FP assay, 130 nM Mdm2, FAM-labelled p53 peptide; Ki transformed from IC50 using Kenakin equation
Reported log10(Ki) is given for each of the following compounds.
Recorded Ki (log10, nM)

Sample answers from the record:
1. CCc1ccccc1-n1nc2c(c1C(C)C)C1(C(=O)Nc3cc(Cl)ccc31)N(c1cc(Cl)ccc1C)C2=O (stereo not shown) = 1.93
2. COc1ccc(C(=O)NCCO)cc1-n1cc2c(c1C(C)C)C1(C(=O)Nc3cc(Cl)ccc31)N(c1cc(Cl)ccc1C)C2=O (stereo not shown) = 0.54
3. COc1ccccc1-n1cc2c(c1C(C)C)C1(C(=O)Nc3cc(Cl)ccc31)N(c1cc(Cl)ccc1[N+](=O)[O-])C2=O (stereo not shown) = 1.52
4. CSc1ccccc1-n1nc2c(c1C(C)C)C1(C(=O)Nc3cc(Cl)ccc31)N(c1cc(Cl)ccc1C)C2=O (stereo not shown) = 1.48
5. COc1ccccc1-n1cc2c(c1C(C)C)C1(C(=O)Nc3cc(Cl)ccc31)N(c1cc(Cl)ccc1N)C2=O (stereo not shown) = 0.65

Exercise: Entry under review: CN(C)C(=O)C1CCCC1Cn1nc2c(c1C1(C)CC1)C1(C(=O)Nc3cc(Cl)ccc31)N(c1cccc(Cl)c1)C2=O (stereo not shown) . Reported log10(Ki)?
Key: 2.55

Exercise: GET /values?readout=log10(Ki)&item= O=C(C1=C(O)C(=O)N(c2cccc(Cl)c2)C12C(=O)Nc1cc(Cl)ccc12)c1ccccc1 (stereo not shown)
Key: 1.71

Exercise: Can you share its log10(Ki)? I mean this compound: Cc1ccc(Cl)cc1N1C(=O)c2nn(-c3ccccc3C)c(C(C)C)c2C12C(=O)Nc1cc(Cl)ccc12 (stereo not shown)
Key: 1.66

Exercise: May I ask what log10(Ki) has been recorded for Cc1ncc(Cl)cc1N1C(=O)c2n[nH]c(C(C)C)c2C12C(=O)Nc1cc(Cl)ccc12 (stereo not shown) ?
Key: 2.18

Exercise: Find the recorded log10(Ki) belonging to COc1ccccc1-n1cc2c(c1C(C)C)C1(C(=O)Nc3cc(Cl)ccc31)N(c1cc(Cl)ccc1NS(C)(=O)=O)C2=O (stereo not shown) and report it.
Key: 0.82

---

The compounds listed here are annotated with their Ki.
# measured-target: p53-Mdm2 interaction (N-terminal domain of Mdm2 protein, amino acids 1-111) (Homo sapiens)
# Construct: N-terminal domain of Mdm2 protein (amino acids 1-111)
# method: Fluorescence polarization (FP) binding assay of p53-Mdm2 interaction
# reported-conditions: FP assay, 130 nM Mdm2, FAM-labelled p53 peptide; Ki transformed from IC50 using Kenakin equation
Reply with just the number (in nM).

Some solved cases for reference:
1) O=C1C(O)=C(c2ccccc2)C2(C(=O)Nc3cc(Cl)c(Cl)cc32)N1c1cccc(Cl)c1 (centres unmarked) = 650
2) COc1ccccc1-n1nc2c(c1C(C)C)C1(C(=O)Nc3cc(Cl)ccc31)N(c1cc(Cl)ccc1C)C2=O (centres unmarked) = 4.7
3) CC(C)(C)C(=O)C1=C(O)C(=O)N(c2cccc(Cl)c2)C12C(=O)Nc1cc(Cl)ccc12 (centres unmarked) = 102
4) COc1ccc(Cl)cc1N1C(=O)C(O)=C(c2ccccc2)C12C(=O)Nc1cc(Cl)ccc12 (centres unmarked) = 96
5) COc1ccccc1-n1nc(C(C)C)c2c1C(=O)N(c1cc(Cl)ccc1C)C21C(=O)Nc2cc(Cl)ccc21 (centres unmarked) = 1390
6) CCOC(=O)CNC1=C(C(=O)C2(C)CC2)C2(C(=O)Nc3cc(Cl)ccc32)N(c2cccc(Cl)c2)C1=O (centres unmarked) = 349
7) COc1ccc(Cl)cc1N1C(=O)C(O)=C(C(=O)C(C)C)C12C(=O)Nc1cc(Cl)ccc12 (centres unmarked) = 610
8) CCOC(=O)CNC1=C(c2ccccc2)C2(C(=O)Nc3cc(Cl)ccc32)N(c2cccc(Cl)c2)C1=O (centres unmarked) = 205
9) CCC(C)SC1=C(O)C(=O)N(c2cccc(Cl)c2)C12C(=O)Nc1cc(Cl)ccc12 (centres unmarked) = 79
10) CC1(C(=O)C2=C(O)C(=O)N(c3cc(Cl)ccc3F)C23C(=O)Nc2cc(Cl)ccc23)CC1 (centres unmarked) = 354

Exercise: Recorded Ki of COc1ccc(Cl)cc1N1C(=O)c2nn(-c3ccccc3OC)c(C(C)C)c2C12C(=O)Nc1cc(Cl)ccc12 (centres unmarked) , please.
Key: 8.2

Exercise: Looking for the measured Ki of COc1ccc(NC(C)=O)cc1-n1cc2c(c1C(C)C)[C@@]1(C(=O)Nc3cc(Cl)ccc31)N(c1cc(Cl)ccc1C)C2=O , can you help?
Key: 1.6

Exercise: Return reported Ki; argument: COC(=O)/C=C/COc1ccc(Cl)cc1N1C(=O)c2nn(-c3ccccc3OC)c(C(C)C)c2C12C(=O)Nc1cc(Cl)ccc12 (centres unmarked)
Key: 11

Exercise: Given the compound COc1ccc(-n2cc3c(c2C(C)C)[C@@]2(C(=O)Nc4cc(Cl)ccc42)N(c2cc(Cl)cnc2C)C3=O)c(OC)c1 , what is its reported Ki?
Key: 2.8

Exercise: Fill in: Ki of CCc1ccccc1-n1nc2c(c1CC)C1(C(=O)Nc3cc(Cl)ccc31)N(c1cc(Cl)ccc1C)C2=O (centres unmarked) is ___
Key: 86

Exercise: Dear colleague, I am looking for the recorded Ki of the following compound: COC(=O)c1ccc(OC)c(-n2nc3c(c2C(C)C)C2(C(=O)Nc4cc(Cl)ccc42)N(c2cc(Cl)ccc2C)C3=O)c1 (centres unmarked)
Key: 3.4

Exercise: For the compound shown here, CC1(c2c3c(nn2CC2CCCN2)C(=O)N(c2cccc(Cl)c2)C32C(=O)Nc3cc(Cl)ccc32)CC1 (centres unmarked) , give the reported Ki.
Key: 1460
